assay: equilibrium solubility-pH, direct-UV microtitre plate (μSOL Evolution) with and without excipients; details: aqueous universal buffer (pION), saturated drug suspension, pKa^APP ± SD, apparent ionization constant; excipient 0.2M KCl
Catalogue of compounds with associated pKa at 18 h

| Structure smiles string | pKa at 18 h |
| --- | --- |
| CCCCN(CCCC)CCCOC(=O)c1ccc(N)cc1 | 8.6 |
| Cc1cccc(Nc2ccccc2C(=O)O)c1C | 4.3 |
| OCCN(CCO)c1nc(N2CCCCC2)c2nc(N(CCO)CCO)nc(N3CCCCC3)c2n1 | 5.9 |

###

assay: Double-Sink PAMPA permeability with and without excipients; conditions: apparent/true molecular weight, 40 μm ABL assumed; 0 mM NaTC (first value)

| Structure smiles string | MW*/MW |
| --- | --- |
| OCCN(CCO)c1nc(N2CCCCC2)c2nc(N(CCO)CCO)nc(N3CCCCC3)c2n1 | ~1 |
| COc1ccc(CCN2CCC(Nc3nc4ccccc4n3Cc3ccc(F)cc3)CC2)cc1 | ~1 |
| Clc1ccccc1C(c1ccccc1)(c1ccccc1)n1ccnc1 | < 1 |

FYI, the data here is from patent US8175815B2.
